Data provenance: paper PMC10377574

Test: in vivo
Details: Balb/c nu/nu, mouse, iv, 40 pmol, total radioactivity, Spleen uptake

- compound: "CC(C)C[C@H](NC(=O)C[C@H](O)[C@H](CC(C)C)NC(=O)[C@H](Cc1c[nH]cn1)NC(=O)CNC(=O)[C@@H](NC(=O)[C@H](C)NC(=O)[C@H](Cc1c[nH]c2ccccc12)NC(=O)[C@H](CCC(N)=O)NC(=O)[C@@H](Cc1ccccc1)NC(=O)COCCOCCNC(=O)CCC(C(=O)O)N1CCN(CC(=O)O)CCN(CC(=O)O)CCN(CC(=O)O)CC1)C(C)C)C(N)=O (mixture of isomers) [[^111In]In-DOTAGA-PEG2-RM26, metal not drawn]"
  tissue uptake at 1 h [%ID/g]: 0.21
